# Test system: A549
# TEST METHOD NOTES: Growth inhibition of human A549 cells at 10 uM after 24 hrs by MTT assay relative to control
# Assay type: functional
# STATED CONDITIONS: A549, 24 h, read-out: GI
EXPERIMENTAL ENDPOINT: inhibition of growth at 10 µM (%)
Give bare numbers, in %.

Solved entries (count: 3):
CS(=O)(=O)c1ccc(-c2cnc3[nH]cc(-c4nnc(-c5ccc(F)cc5)o4)c(=O)c3c2)cc1 :: 3.59
O=c1c(-c2nnc(-c3ccc(Cl)cc3)o2)c[nH]c2ncc(-c3ccccc3)cc12 :: 9.77
N#Cc1ccc(-c2cnc3[nH]cc(-c4nnc(-c5ccc(Cl)cc5)o4)c(=O)c3c2)cc1 :: 12.5

Count: 2. Required value per item: inhibition of growth at 10 µM.
1. CS(=O)(=O)c1ccc(-c2cnc3[nH]cc(-c4nnc(-c5ccncc5)o4)c(=O)c3c2)cc1
2. Cc1ccc(-c2nnc(-c3c[nH]c4ncc(-c5ccc(S(C)(=O)=O)cc5)cc4c3=O)o2)cc1

1: 12.1; 2: 11.2

Count: 3. Required value per item: inhibition of growth at 10 µM.
1. CS(=O)(=O)c1ccc(-c2cnc3[nH]cc(-c4nnc(-c5ccccc5)o4)c(=O)c3c2)cc1
2. CS(=O)(=O)c1ccc(-c2cnc3[nH]cc(-c4nnc(-c5ccc(Cl)cc5)o4)c(=O)c3c2)cc1
3. Cc1cccc(-c2nnc(-c3c[nH]c4ncc(-c5ccc(S(C)(=O)=O)cc5)cc4c3=O)o2)c1

[9.51, 26.8, 8.95]

====

# Tested on: HCT-116
# TEST METHOD NOTES: Potentiation of cisplatin-induced antiproliferative activity against human HCT116 cells assessed as cell growth inhibition at 2.5 uM preincubated for 24 hrs followed by 2.5 uM cisplatin addition and measured after 48 hrs by MTT assay (reference value: 26.98 +/-2.84%)
# Type: functional
# STATED CONDITIONS: read-out: GI
EXPERIMENTAL ENDPOINT: inhibition of growth at 2.5 µM (%)
Answers are plain numbers, in %.

Solved entries (count: 4):
Cc1ccc(-c2nnc(-c3c[nH]c4ncc(-c5ccc(S(C)(=O)=O)cc5)cc4c3=O)o2)cc1 :: 54.8
CS(=O)(=O)c1ccc(-c2cnc3[nH]cc(-c4nnc(-c5ccc(Cl)cc5)o4)c(=O)c3c2)cc1 :: 24.9
O=c1c(-c2nnc(-c3ccc(F)cc3)o2)c[nH]c2ncc(-c3cccnc3)cc12 :: 20.1
N#Cc1ccc(-c2cnc3[nH]cc(-c4nnc(-c5ccc(F)cc5)o4)c(=O)c3c2)cc1 :: 25.6

Count: 4. Required value per item: inhibition of growth at 2.5 µM.
1. CS(=O)(=O)c1ccc(-c2cnc3[nH]cc(-c4nnc(-c5ccccn5)o4)c(=O)c3c2)cc1
2. CS(=O)(=O)c1ccc(-c2cnc3[nH]cc(-c4nnc(-c5ccccc5)o4)c(=O)c3c2)cc1
3. O=c1c(-c2nnc(-c3ccc(Cl)cc3)o2)c[nH]c2ncc(-c3ccccc3)cc12
4. CS(=O)(=O)c1ccc(-c2cnc3[nH]cc(-c4nnc(-c5ccncc5)o4)c(=O)c3c2)cc1

1. 34.3
2. 27.2
3. 29.8
4. 29.2

====

# Test system: HCT-116
# TEST METHOD NOTES: Potentiation of cisplatin-induced antiproliferative activity against human HCT116 cells assessed as cell growth inhibition at 2.5 uM preincubated for 24 hrs followed by 2.5 uM cisplatin addition and measured after 48 hrs by MTT assay (reference value: 26.98 +/-2.84%)
# Format: functional
# STATED CONDITIONS: read-out: GI
EXPERIMENTAL ENDPOINT: inhibition of growth at 2.5 µM (%)
Give bare numbers, in %.

O=c1c(-c2nnc(-c3ccc(F)cc3)o2)c[nH]c2ncc(-c3ccncc3)cc12 :: 19.6
N#Cc1ccc(-c2cnc3[nH]cc(-c4nnc(-c5ccc(Cl)cc5)o4)c(=O)c3c2)cc1 :: 35.4
Cc1cccc(-c2nnc(-c3c[nH]c4ncc(-c5ccc(S(C)(=O)=O)cc5)cc4c3=O)o2)c1 :: 50.8

Count: 3. Required value per item: inhibition of growth at 2.5 µM.
1. CS(=O)(=O)c1ccc(-c2cnc3[nH]cc(-c4nnc(-c5ccc(F)cc5)o4)c(=O)c3c2)cc1
2. O=c1c(-c2nnc(-c3ccc(Cl)cc3)o2)c[nH]c2ncc(-c3cccnc3)cc12
3. CS(=O)(=O)c1ccc(-c2cnc3[nH]cc(-c4nnc(-c5cccnc5)o4)c(=O)c3c2)cc1

1. 39.5
2. 20.1
3. 28.6

The values you see were collected from ChEMBL document CHEMBL4368880.
